As shown below, each of these compounds has a reported melting point value.

compound	melting point
COc1cc2c(Oc3ccc(NS(=O)(=O)c4ccccc4C#N)cc3F)ccnc2cc1OCCCN1CCCC(C)C1 (stereo not drawn) [Example D31]	131 to 132 °C
COc1cc2nccc(Oc3ccc(NS(=O)(=O)c4ccc(Br)cc4OC(F)(F)F)cc3F)c2cc1OC [Example A146]	226 to 228 °C
COc1cc2nccc(Oc3ccc(NS(=O)(=O)c4cccc(Oc5ccccc5)c4)c(F)c3)c2cc1OC [Example A30]	179 to 180 °C
COc1cc2c(Oc3ccc(NS(=O)(=O)c4cccc(-c5ccccc5)c4)cc3F)ccnc2cc1OCCCN1CCCC(C)C1 (stereo not drawn) [Example D37]	190 to 192 °C
Cc1cc(Oc2ccc(NS(=O)(=O)c3cccc4ccccc34)cc2)c2cc(F)ccc2n1 [Example B20]	223 to 225 °C
COc1cc2nccc(Oc3ccc(NS(=O)(=O)c4cccc5ccccc45)cc3)c2cc1OC [Example A104]	250 to 253 °C
COc1cc2nccc(Oc3ccc(NS(=O)(=O)c4cc(C)c(C)cc4OC)c(F)c3)c2cc1OC [Example A64]	238 to 240 °C
COc1cc2c(Oc3ccc(NS(=O)(=O)c4ccccc4C#N)cc3F)ccnc2cc1OCCN1CCOCC1 [Example D27]	193 to 196 °C
COc1cc2nccc(Oc3ccc(NS(=O)(=O)c4cccc(C)c4)c(F)c3)c2cc1OC [Example A26]	244 to 245 °C
Cc1cc(Oc2ccc(NS(=O)(=O)c3cccc(-c4ccccc4)c3)c(F)c2)c2cccc(C(F)(F)F)c2n1 [Example C02]	187 to 188 °C
COc1c(Cl)cc(Cl)cc1S(=O)(=O)Nc1ccc(Oc2cc(C)nc3ccc(F)cc23)cc1 [Example B11]	192 to 193 °C
COc1cc2nccc(Oc3ccc(NS(=O)(=O)c4cc5ccccc5s4)c(C)c3)c2cc1OC [Example A94]	255 to 257 °C
COc1cc2nccc(Oc3ccc(NS(=O)(=O)c4cccc(-c5ccccc5)c4)c(C)c3)c2cc1OC [Example A89]	220 to 222 °C
COc1cc2nccc(Oc3ccc(NS(=O)(=O)c4cc(C(F)(F)F)ccc4Br)c(F)c3)c2cc1OC [Example A46]	227 to 230 °C
COc1cc2nccc(Oc3ccc(NS(=O)(=O)c4cccc(Oc5ccccc5)c4)cc3F)c2cc1OC [Example A98]	197 to 199 °C
COc1cc2c(Oc3ccc(NS(=O)(=O)c4cccc(-c5ccccc5)c4)cc3F)ccnc2cc1OCCCN1CCC(C)CC1 [Example D29]	196 to 198 °C
COc1cc2nccc(Oc3ccc(NS(=O)(=O)c4cc(Cl)cc(Cl)c4OC)cc3C)c2cc1OC [Example A127]	206 to 208 °C
COc1cc2nccc(Oc3ccc(NS(=O)(=O)c4ccc5c(c4)CC(=O)N5C)c(F)c3)c2cc1OC [Example A137]	195 to 197 °C
COc1ccc(S(=O)(=O)Nc2ccc(Oc3cc(C)nc4c(C(F)(F)F)cccc34)c(F)c2)cc1F [Example C09]	128 to 130 °C
CCCCS(=O)(=O)Nc1ccc(Oc2ccnc3cc(OCCCN4CCCC(C)C4)c(OC)cc23)c(F)c1 (stereo not drawn) [Example D25]	104 to 106 °C
COc1cc2nccc(Oc3ccc(NS(=O)(=O)c4cccc(F)c4)c(F)c3)c2cc1OC	233 to 235 °C
COc1cc2c(Oc3ccc(NS(=O)(=O)c4ccccc4OC(F)(F)F)cc3F)ccnc2cc1OCCCN1CCC(C)CC1 [Example D33]	206 to 208 °C
Cc1cc(Oc2ccc(NS(=O)(=O)c3cc(F)ccc3F)c(F)c2)c2cccc(C(F)(F)F)c2n1 [Example C11]	179 to 181 °C
Cc1cc(Oc2ccc(NS(=O)(=O)c3cccs3)c(F)c2)c2cc(F)ccc2n1 [Example B1]	166 to 167 °C
COc1cc2c(Oc3ccc(NS(=O)(=O)c4cc(F)ccc4F)c(C)c3)ccnc2cc1OCCN1CCOCC1 [Example D09]	195 to 196 °C
COc1cc2nccc(Oc3ccc(NS(=O)(=O)c4cc(F)ccc4F)cc3C)c2cc1OC [Example A131]	239 to 240 °C
COc1cc2c(Oc3ccc(NS(=O)(=O)c4ccccc4Br)cc3F)ccnc2cc1OCCN1CCOCC1 [Example D26]	175 to 177 °C
COc1cc2nccc(Oc3ccc(NS(=O)(=O)c4ccc(-c5ccccc5)cc4)c(C)c3)c2cc1OC [Example A92]	228 to 230 °C
COc1cc(S(=O)(=O)Nc2ccc(Oc3ccnc4cc(OC)c(OC)cc34)c(OC)c2)ccc1F [Example A121]	109 to 110 °C
Cc1cc(Oc2ccc(NS(=O)(=O)c3ccc(-c4cnco4)s3)cc2)c2cc(F)ccc2n1 [Example B19]	164 to 166 °C
